# TARGET SYSTEM: Human immunodeficiency virus type 1 protease (Human immunodeficiency virus 1)
RESULT TYPE: pKi
Interpret pKi as the negative base-10 log of the concentration measured in mol/L.

Exercise: For the molecule `CC[C@@H](C)[C@@H]1NC(=O)[C@@H](NC[C@@H](O)[C@H](Cc2ccccc2)NC(=O)[C@@H](NC(=O)c2ccc3ccccc3n2)C(C)C)Cc2ccc(cc2)OCCCNC1=O` , give its reported pKi.
Solution: 9.52

// data source = ChEMBL document CHEMBL1133648
